Tested on: Escherichia coli NIHJ
experiment-summary: MIC, standard agar dilution method, Escherichia coli NIHJ
Format: cell-based
conditions-used: Escherichia coli NIHJ; Mueller Hinton agar, 18 hours, 37° C.; read-out: MIC
result-type: MIC (µg/mL)
Response body: numeric value in µg/mL, unit text excluded.

Data request: Data request, read-out MIC, for "CO[C@@]1(NC(=O)[C@H](NC(=O)c2coc3ccccc3c2=O)c2ccc(O)cc2)C(=O)N2C(C(=O)O)=C(CSc3nnnn3C)CS[C@@H]21"
Data returned: 12.5

Data request: Same read-out for "CO[C@@]1(NC(=O)[C@H](NC(=O)c2coc3cc(O)c(O)cc3c2=O)c2ccc(O)cc2)C(=O)N2C(C(=O)O)=C(CSc3nnnn3CCN(C)C)CS[C@@H]21" ?
Data returned: 12.5

Data request: Same read-out for "CO[C@@]1(NC(=O)[C@H](NC(=O)c2coc3c(O)c(O)ccc3c2=O)c2ccc(O)cc2)C(=O)N2C(C(=O)O)=C(CSc3nnnn3C)CS[C@@H]21" ?
Data returned: 3.13
